- assay system: Q9H190
- test name: holdup assay
- Set-up: key: below the threshold = too weak to quantify, mostly under pKd 3.1 to 4
- assay conditions: plain residues with an end cap or a label only (N-terminal biotin on a linker: ttds)
readout kind: pKd

Here are 4 binders together with their reported answers.
> print(dat)
                          binder      measured.result
1    RLPKIKETTV [FRMPD4, Q14CM0]  below the threshold
2  RHTTSTETAV [HPV30-E6, P36809]  below the threshold
3     RPLPRKVSQL [DOCK4, Q8N1I0]  below the threshold
4    SSLQSLETSV [ATP2B4, P23634]  below the threshold

Now look at this one.
Value lookup for pKd; key = QRQARSETLV [HPV59-E6, Q81964]
below the threshold
